Would you kindly list solubility kinetic for each of these compounds?
Experiment: Solubility of the compound in phosphate buffer at pH 6.5 by nephlometric analysis
Type: physicochemical
# number only, unit µg/mL dropped from output

In: Look at this compound and give its reported solubility kinetic. `CNc1nc(NCCCN(C)C)c2sc(-c3ccc(C(C)=O)cc3)cc2n1`
Out: 12.5

In: Look at this compound and give its reported solubility kinetic. `CNc1nc(NCCCN(C)C)c2sc(-c3ccc(N)cc3)cc2n1`
Out: 12.5

In: Look at this compound and give its reported solubility kinetic. `CNc1nc(NCCCN(C)C)c2sc(-c3ccc(S(C)(=O)=O)cc3)cc2n1`
Out: 25

In: Look at this compound and give its reported solubility kinetic. `CNc1nc(NCCCN(C)C)c2sc(-c3ccc(C#N)cc3)cc2n1`
Out: 50

In: Look at this compound and give its reported solubility kinetic. `CNc1nc(NCCCN(C)C)c2sc(-c3ccc(N4CCNCC4)cc3)cc2n1`
Out: 12.5

In: Look at this compound and give its reported solubility kinetic. `CNc1nc(NCCCN(C)C)c2sc(-c3ccc(N4CCOCC4)cc3)cc2n1`
Out: 12.5

In: Look at this compound and give its reported solubility kinetic. `CNc1nc(NCCCN(C)C)c2sc(-c3cccc(C#N)c3)cc2n1`
Out: 25

In: Look at this compound and give its reported solubility kinetic. `CNc1nc(NCCCN(C)C)c2sc(-c3ccc(OC)nc3)cc2n1`
Out: 25

In: Look at this compound and give its reported solubility kinetic. `CNc1nc(NCCCN(C)C)c2sc(-c3ccc(C(F)(F)F)nc3)cc2n1`
Out: 12.5

###

Test: Plasma concentration in Swiss outbred mouse infected with Plasmodium berghei at 50 mg/kg, po measured at 4 hrs
Assay type: ADME, organism-based
Parameters: dose 50 mg/kg, route oral
test.readout: concentration at 4 h (nM)
# number only, unit nM dropped from output

In: Look at this molecule and give its reported concentration at 4 h. `CNc1nc(NCCCN(C)C)c2sc(-c3ccc(F)cc3)cc2n1`
Out: 90

In: Look at this molecule and give its reported concentration at 4 h. `CNc1nc(NCCCN(C)C)c2sc(-c3ccc(C(F)(F)F)cc3)cc2n1`
Out: 220

###

Test: Solubility of the compound in 0.01 M HCl at pH 2
Assay type: physicochemical
test.readout: solubility (µg/mL)
# number only, unit µg/mL dropped from output

In: Look at this compound and give its reported solubility. `CNc1nc(NCCCN(C)C)c2oc(-c3ccccc3)cc2n1`
Out: 214

In: Look at this compound and give its reported solubility. `CNc1nc(NCCCN(C)C)c2sc(-c3ccc(-n4cccn4)cc3)cc2n1`
Out: 217

In: Look at this compound and give its reported solubility. `CNc1nc(NCCCN(C)C)c2cc(-c3ccccc3)sc2n1`
Out: 216

###

Test: Volume of distribution at steady state in Sprague-Dawley rat plasma at 4 mg/kg, iv
Type: ADME, organism-based
Set-up: dose 4 mg/kg, route intravenous
Conditions: read-out: Vdss
test.readout: Vd (L/kg)
# number only, unit L/kg dropped from output

In: Look at this molecule and give its reported Vd. `CNc1nc(NCCCN(C)C)c2sc(-c3ccccc3)cc2n1`
Out: 139

###

Test: AUC (0 to infinity) in Sprague-Dawley rat at 4 mg/kg, iv
Format: ADME, organism-based
Design: dose 4 mg/kg, route intravenous, time infinity
Conditions: plasma
test.readout: AUC(0-inf)

In: Look at this compound and give its reported AUC(0-inf). `CNc1nc(NCCCN(C)C)c2sc(-c3ccccc3)cc2n1`
Out: 1.28 µM·h
